Test: Half-life in rat plasma when administered intravenously at a dose of 10 mg/kg
Type: ADME, organism-based
Set-up: dose 10 mg/kg, route intravenous
Conditions: iv
PARAMETER: half-life (min)
# unit: min | format: bare number

Note to self: half-life recorded for N[C@](CC1c2ccccc2Oc2ccccc21)(C(=O)O)[C@H]1C[C@@H]1C(=O)O was 28.8

====

Assay: Plasma concentration after 1 hr at a dose of 10 mg/kg when administered intraperitoneally
Conditions: ip
PARAMETER: concentration at 1 h
Field note: include the unit after the figure.

Sure, the documented concentration at 1 h for N[C@](CC1c2ccccc2Oc2ccccc21)(C(=O)O)[C@H]1C[C@@H]1C(=O)O is 4570 ng/mL

====

Assay: Maximum concentration achieved in rat brain when administered perorally at a dose of 100 mg/kg
Assay type: ADME, organism-based
Design: dose 100 mg/kg, route oral
Details: po
PARAMETER: Cmax (ng/g)
The reply should be a number in ng/g, with the unit left off.

Cmax in this record for N[C@](CC1c2ccccc2Oc2ccccc21)(C(=O)O)[C@H]1C[C@@H]1C(=O)O : 30

====

Test: Brain concentration after 1 hr at a dose of 100 mg/kg when administered perorally
Settings: po
PARAMETER: concentration at 1 h
Answers without a unit are incomplete; give the number and then its unit.

Entry N[C@](CC1c2ccccc2Oc2ccccc21)(C(=O)O)[C@H]1C[C@@H]1C(=O)O ; concentration at 1 h = 16.4 ng/g

====

Test: Time of maximum concentration achieved in rat plasma when administered perorally at a dose of 10 mg/kg
Format: ADME, organism-based
Set-up: dose 10 mg/kg, route oral
Settings: po
PARAMETER: Tmax (min)
Hi! Could you send only the number? It should be in min, unit omitted.

For N[C@](CC1c2ccccc2Oc2ccccc21)(C(=O)O)[C@H]1C[C@@H]1C(=O)O the molecule record lists Tmax as 30

====

Assay: Plasma concentration after 4 hr at a dose of 10 mg/kg when administered perorally
Conditions: po
PARAMETER: concentration at 4 h (ng/mL)
Field: numeric (ng/mL). Do not append units.

The reported concentration at 4 h of the compound N[C@](CC1c2ccccc2Oc2ccccc21)(C(=O)O)[C@H]1C[C@@H]1C(=O)O was 28.3

====

Assay: Plasma concentration after 1 hr at a dose of 10 mg/kg when administered perorally
Settings: po
PARAMETER: concentration at 1 h (ng/mL)
Entry rule: numbers only, all in ng/mL.

For reference, reported concentration at 1 h for N[C@](CC1c2ccccc2Oc2ccccc21)(C(=O)O)[C@H]1C[C@@H]1C(=O)O stands at 48.3

====

Assay: Plasma concentration after 0.5 hr at a dose of 10 mg/kg when administered intraperitoneally
Conditions: ip
PARAMETER: concentration at 0.5 h (ng/mL)
The reply should contain only the number, in ng/mL.

The reported concentration at 0.5 h of the compound N[C@](CC1c2ccccc2Oc2ccccc21)(C(=O)O)[C@H]1C[C@@H]1C(=O)O was 10700
